molecular target: wild-type auxin receptor (TIR1) (Arabidopsis thaliana, UniProt Q570C0); construct: expressed in transfected cells; host or cells: Saccharomyces cerevisiae strain EGY48; test: Evaluation of binding to auxin receptor (yeast two-hybrid assay), wild-type receptor; conditions: yeast EGY48, LacZ reporter, X-gal, 30° C. for 3 days; wild type auxin receptor with AUX/IAA protein
Sequence (Q570C0 whole entry): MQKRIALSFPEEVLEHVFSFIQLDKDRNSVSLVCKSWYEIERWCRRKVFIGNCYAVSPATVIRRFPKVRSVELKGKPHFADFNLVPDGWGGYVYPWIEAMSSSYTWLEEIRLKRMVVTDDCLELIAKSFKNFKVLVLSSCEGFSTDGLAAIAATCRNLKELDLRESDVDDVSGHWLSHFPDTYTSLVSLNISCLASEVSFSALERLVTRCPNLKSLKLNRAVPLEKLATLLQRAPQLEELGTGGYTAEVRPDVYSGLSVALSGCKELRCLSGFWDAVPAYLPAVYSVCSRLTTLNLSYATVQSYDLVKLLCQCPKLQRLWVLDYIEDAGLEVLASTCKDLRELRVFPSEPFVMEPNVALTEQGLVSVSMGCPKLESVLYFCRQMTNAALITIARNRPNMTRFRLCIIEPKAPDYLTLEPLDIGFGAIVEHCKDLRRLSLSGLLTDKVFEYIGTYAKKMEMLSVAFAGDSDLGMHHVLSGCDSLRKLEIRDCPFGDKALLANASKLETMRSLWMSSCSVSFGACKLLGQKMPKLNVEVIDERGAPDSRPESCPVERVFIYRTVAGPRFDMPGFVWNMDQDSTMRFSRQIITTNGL
Sequence (Q38822 1-93 partner limits assumed): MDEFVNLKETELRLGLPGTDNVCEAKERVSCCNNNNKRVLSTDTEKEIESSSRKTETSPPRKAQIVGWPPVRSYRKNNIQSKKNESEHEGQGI
Collected wt TIR: minimum concentration of the test compound in which the well turns blue values appear next to each entry.

These recorded examples may help you get a feel for the data.
CCCCCCCOc1ccc2[nH]cc(CC(=O)O)c2c1 | 100 µM
CCOc1cccc(-c2ccc3[nH]cc(CC(=O)O)c3c2)c1 | 100 µM
O=C(O)Cc1c[nH]c2ccc(C3CCCCC3)cc12 | 0.1 µM
O=C(O)Cc1c[nH]c2ccc(-c3ccc4c(c3)OCO4)cc12 | 10 µM
O=C(O)Cc1c[nH]c2ccc(C34CC5CC(CC(C5)C3)C4)cc12 | 0.1 µM
Cc1ccc(C)c(-c2ccc3[nH]cc(CC(=O)O)c3c2)c1 | >100 µM
CCC(C)COc1ccc2[nH]cc(CC(=O)O)c2c1 (centres unmarked) | 10 µM

Query block: # value lookup — system wild-type auxin receptor (TIR1) (Arabidopsis thaliana, UniProt Q570C0), readout wt TIR: minimum concentration of the test compound in which the well turns blue, item O=C(O)Cc1c[nH]c2cc(-c3ccccc3-c3ccccc3)ccc12
Result block: 100 µM
